# Target Desc: memapsin 2 (Cricetulus griseus, UniProt G3IAK4)
# Construct: endogenous in cells
# Sequence (G3IAK4 22-501): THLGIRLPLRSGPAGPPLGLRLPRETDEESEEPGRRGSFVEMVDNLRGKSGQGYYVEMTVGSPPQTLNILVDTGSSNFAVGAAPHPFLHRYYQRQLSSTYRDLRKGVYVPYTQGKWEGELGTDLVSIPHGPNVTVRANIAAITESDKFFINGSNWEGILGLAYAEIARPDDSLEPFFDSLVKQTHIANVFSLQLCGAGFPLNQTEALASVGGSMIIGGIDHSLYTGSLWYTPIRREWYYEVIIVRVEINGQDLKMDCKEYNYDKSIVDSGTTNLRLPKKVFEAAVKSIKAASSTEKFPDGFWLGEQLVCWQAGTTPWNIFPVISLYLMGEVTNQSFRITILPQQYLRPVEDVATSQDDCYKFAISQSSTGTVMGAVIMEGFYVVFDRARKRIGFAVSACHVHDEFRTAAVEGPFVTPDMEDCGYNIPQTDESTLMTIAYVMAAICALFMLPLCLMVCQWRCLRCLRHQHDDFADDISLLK
# Assay Info: Cellular Aβ IC50 determination (Aβ40 sandwich ELISA)
# Experimental Conditions: Chinese hamster ovary cells over-expressing human APP695 with London and Swedish mutations, 24 h
Recorded Endpoint: IC50

Measured on memapsin 2 (Cricetulus griseus, UniProt G3IAK4), COC(=O)NC[C@H](NC(=O)OCc1nc(C)cs1)C(=O)N[C@@H](CC(C)C)[C@@H](O)C[C@@H](C)C(=O)N[C@H](C(=O)NCC(C)C)C(C)C has a documented IC50 of < 6 µM

Reported memapsin 2 (Cricetulus griseus, UniProt G3IAK4) IC50 for item COC(=O)NCC(NC(=O)C(C)Cc1nc(C)cs1)C(=O)NC(CC(C)C)C(O)CC(C)C(=O)NC(C(=O)NCC(C)C)C(C)C (centres unmarked) was < 6 µM

* * *

# Target Desc: memapsin 2 (Cricetulus griseus, UniProt G3IAK4)
# Construct: endogenous in cells
# Assay Info: Cellular Aβ IC50 determination (Aβ40 sandwich ELISA)
# Experimental Conditions: Chinese hamster ovary cells over-expressing human APP695 with London and Swedish mutations, 24 h
pIC50: −log10 of the molar value.
Recorded Endpoint: pIC50

Before answering, review these 5 worked examples.
Cc1csc(CC(C)C(=O)NC(CNS(C)(=O)=O)C(=O)NC(CC(C)C)C(O)CC(C)C(=O)NC(C(=O)NCC(C)C)C(C)C)n1 (stereo not drawn): > 5.22
Cc1csc(CC(C)C(=O)NC(CNC(=O)OC(C)(C)C)C(=O)NC(CC(C)C)C(O)CC(C)C(=O)NC(C(=O)NCc2ccncc2)C(C)C)n1 (stereo not drawn): > 5.22
Cc1csc(CC(C)C(=O)NC(CNC(=O)OC(C)(C)C)C(=O)NC(Cc2cc(F)cc(F)c2)C(O)CC(C)C(=O)NC(C(=O)NCC(C)C)C(C)C)n1 (stereo not drawn): 4.00 to 5.22
Cc1csc(COC(=O)N[C@@H](CNC(=O)O[C@H]2CCOC2)C(=O)N[C@@H](CC(C)C)[C@@H](O)C[C@@H](C)C(=O)N[C@H](C(=O)NCC(C)C)C(C)C)n1: 4.00 to 5.22
CCC(Cn1nc(C)cc1C)C(=O)NC(CNC(=O)OC(C)(C)C)C(=O)NC(CC(C)C)C(O)CC(C)C(=O)NC(C(=O)NCc1ccncc1)C(C)C (stereo not drawn): > 5.22

Moving on to another compound below.
# pIC50 of Cc1csc(CC(C)C(=O)NC(CNC(=O)OC(C)(C)C)C(=O)NC(CC(C)C)C(O)CC(C)C(=O)NC(C(=O)NCC(C)C)C(C)C)n1 (stereo not drawn) = > 5.22

* * *

# Target Desc: memapsin 2 (Cricetulus griseus, UniProt G3IAK4)
# Construct: endogenous in cells
# Assay Info: Cellular Aβ IC50 determination (Aβ40 sandwich ELISA)
# Experimental Conditions: Chinese hamster ovary cells over-expressing human APP695 with London and Swedish mutations, 24 h
pIC50: −log10 of the molar value.
Recorded Endpoint: pIC50

Cc1cc(C)n(CC(N=[N+]=[N-])C(=O)NC(CNC(=O)OC(C)(C)C)C(=O)NC(CC(C)C)C(O)CC(C)C(=O)NC(C(=O)NCC(C)C)C(C)C)n1 (stereo not drawn): 4.00 to 5.22
COCCOC(=O)NCC(NC(=O)C(C)Cc1nc(C)cs1)C(=O)NC(CC(C)C)C(O)CC(C)C(=O)NC(C(=O)NCC(C)C)C(C)C (stereo not drawn): > 5.22
CCC(Cc1nc(C)cs1)C(=O)NC(CNC(=O)OC(C)C)C(=O)NC(CC(C)C)C(O)CC(C)C(=O)NC(C(=O)NCC(C)C)C(C)C (stereo not drawn): > 5.22
Cc1cc(C)n(CC(C)C(=O)NC(CNC(=O)OC2CCOC2)C(=O)NC(CC(C)C)C(O)CC(C)C(=O)NC(C(=O)NCC(C)C)C(C)C)n1 (stereo not drawn): 4.00 to 5.22
Cc1cc(C)n(CC(N)C(=O)NC(CNC(=O)OC(C)(C)C)C(=O)NC(CC(C)C)C(O)CC(C)C(=O)NC(C(=O)NCC(C)C)C(C)C)n1 (stereo not drawn): < 4.00

The reported pIC50 of the compound CCC(Cn1nc(C)cc1C)C(=O)NC(CNC(=O)OC(C)(C)C)C(=O)NC(CC(C)C)C(O)CC(C)C(=O)NC(C(=O)NCC(F)(F)F)C(C)C (stereo not drawn) was 4.00 to 5.22
